Would you kindly list IC50 for each of these compounds?
# system under test: H1047R PIK3CA enzyme (Homo sapiens, UniProt P42336, H1047R)
# Sequence (P42336 whole entry H1047R): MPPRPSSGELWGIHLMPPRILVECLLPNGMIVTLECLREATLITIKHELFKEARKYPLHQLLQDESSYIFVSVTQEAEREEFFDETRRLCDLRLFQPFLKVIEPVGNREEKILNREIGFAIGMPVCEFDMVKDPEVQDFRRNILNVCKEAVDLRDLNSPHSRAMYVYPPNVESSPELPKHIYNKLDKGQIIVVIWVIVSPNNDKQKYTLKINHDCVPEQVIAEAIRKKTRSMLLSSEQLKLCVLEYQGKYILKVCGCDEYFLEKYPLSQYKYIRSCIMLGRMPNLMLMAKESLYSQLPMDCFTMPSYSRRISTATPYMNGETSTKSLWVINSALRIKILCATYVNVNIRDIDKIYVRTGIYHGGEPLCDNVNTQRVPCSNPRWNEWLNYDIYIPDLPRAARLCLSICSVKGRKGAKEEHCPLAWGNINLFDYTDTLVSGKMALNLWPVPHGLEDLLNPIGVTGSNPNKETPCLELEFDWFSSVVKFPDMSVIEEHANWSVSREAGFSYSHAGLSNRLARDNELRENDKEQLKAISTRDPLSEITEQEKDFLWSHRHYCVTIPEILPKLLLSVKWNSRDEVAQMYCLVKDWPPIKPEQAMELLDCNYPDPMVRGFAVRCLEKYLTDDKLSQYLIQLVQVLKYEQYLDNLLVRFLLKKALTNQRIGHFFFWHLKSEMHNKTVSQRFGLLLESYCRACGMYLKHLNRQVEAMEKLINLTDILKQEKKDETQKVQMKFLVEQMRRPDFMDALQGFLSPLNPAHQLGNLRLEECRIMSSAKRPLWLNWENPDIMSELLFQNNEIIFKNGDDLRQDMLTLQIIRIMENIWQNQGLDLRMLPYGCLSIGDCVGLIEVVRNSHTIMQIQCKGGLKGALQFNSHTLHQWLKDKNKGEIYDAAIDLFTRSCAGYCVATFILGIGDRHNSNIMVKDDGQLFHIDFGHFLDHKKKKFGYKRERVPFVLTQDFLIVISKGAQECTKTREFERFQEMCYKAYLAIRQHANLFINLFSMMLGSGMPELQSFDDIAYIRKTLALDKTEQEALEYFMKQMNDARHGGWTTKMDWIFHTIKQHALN
# Sequence (P27986 whole entry partner): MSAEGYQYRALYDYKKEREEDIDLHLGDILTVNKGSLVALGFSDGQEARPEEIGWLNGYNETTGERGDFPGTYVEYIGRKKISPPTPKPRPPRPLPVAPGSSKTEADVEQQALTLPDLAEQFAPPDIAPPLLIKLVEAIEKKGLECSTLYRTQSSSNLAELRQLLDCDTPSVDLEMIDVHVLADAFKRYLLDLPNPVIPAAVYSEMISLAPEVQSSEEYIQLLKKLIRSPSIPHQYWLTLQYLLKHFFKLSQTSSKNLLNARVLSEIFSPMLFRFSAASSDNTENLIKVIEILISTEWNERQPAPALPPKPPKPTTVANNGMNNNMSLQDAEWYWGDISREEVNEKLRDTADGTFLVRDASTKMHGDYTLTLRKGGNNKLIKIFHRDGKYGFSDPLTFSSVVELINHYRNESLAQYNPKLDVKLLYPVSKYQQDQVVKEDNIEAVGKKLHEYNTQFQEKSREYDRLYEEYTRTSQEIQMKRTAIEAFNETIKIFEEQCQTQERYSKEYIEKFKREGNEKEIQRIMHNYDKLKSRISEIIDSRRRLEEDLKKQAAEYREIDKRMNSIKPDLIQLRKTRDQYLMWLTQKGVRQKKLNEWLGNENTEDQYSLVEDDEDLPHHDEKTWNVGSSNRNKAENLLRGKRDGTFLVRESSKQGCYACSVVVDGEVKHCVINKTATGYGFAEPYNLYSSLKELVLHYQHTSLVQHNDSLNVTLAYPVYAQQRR
# assay overview: ADP-Glo Biochemical PIK3CA Kinase Assay

Example entries begin here.
C[C@@H](C#N)Cn1cc(-c2cc(NC(=O)N3C[C@@H](O)c4cc(F)ccc43)c3c(c2)C(=O)N[C@@H]3c2cc(F)ccc2Cl)cn1 (single isomer, unassigned) [Compound I-2505]	1 to 10 µM
O=C(Nc1cc(-n2cc(F)cn2)nc2c1C(c1cc(F)ccc1Cl)NC2=O)c1cc(F)cc(C(F)(F)F)c1 (stereo not drawn)	0.1 to 0.5 µM
C[C@@H](c1cc(NC(=O)c2cc(F)cc(C(F)(F)F)c2)c2c(c1)C(=O)N[C@H]2c1cc(F)ccc1Cl)S(C)(=O)=O (single isomer, unassigned)	≤ 0.1 µM
O=C1N[C@H](c2cc(F)ccc2Cl)c2c(NC(=O)N3C[C@H](O)c4cc(F)ccc43)cc(-n3ccnn3)cc21 (single isomer, unassigned)	≤ 0.1 µM
O=C(Nc1cc(NC(=O)C2CNC2)cc2c1C(c1cc(F)ccc1Cl)NC2=O)c1cc(F)cc(C(F)(F)F)c1 (stereo not drawn)	0.1 to 0.5 µM

Provide each entry's IC50 from the list below.
1. Cc1ccccc1C1NC(=O)c2c(CN)ccc(NC(=O)c3csc4ccccc34)c21 (stereo not drawn)
2. CC1(Cc2cc(NC(=O)N3C[C@](O)(C(F)(F)F)c4cc(F)ccc43)c3c(c2)C(=O)N[C@@H]3c2cc(F)ccc2Cl)COC1 (single isomer, unassigned)
3. O=C(Nc1cc(-c2ccc3ncnn3c2)nc2c1[C@@H](c1cc(F)ccc1Cl)NC2=O)c1cc(F)cc(C(F)(F)F)c1
4. O=C(Nc1cc(Br)cc2c1C(c1cc(F)ccc1Cl)NC2=O)c1cc(C(F)(F)F)cc(F)c1F (stereo not drawn)
5. N#Cc1cnccc1-c1cc(NC(=O)c2cc(F)cc(C(F)(F)F)c2)c2c(c1)C(=O)NC2c1cc(F)ccc1Cl (stereo not drawn)
6. O=C(Nc1cc(-c2nc3cnccc3[nH]2)cc2c1C(c1cc(F)ccc1Cl)NC2=O)c1cc(F)cc(C(F)(F)F)c1 (stereo not drawn)

### Response
1: ≤ 0.1 µM; 2: ≤ 0.1 µM; 3: 0.1 to 0.5 µM; 4: 1 to 10 µM; 5: ≤ 0.1 µM; 6: ≤ 0.1 µM

### Prompt Query (compound): Cc1ncc(-c2cc(NC(=O)c3cc(F)cc(C(F)(F)F)c3)c3c(c2)C(=O)NC3c2cc(F)ccc2Cl)c(C)n1 (stereo not drawn) ; field requested: IC50
### Response 0.1 to 0.5 µM
